Test: Etiological profile of hyperprolactinemia, Endocrine OPD
Format: in vivo, human
Details: 50 subjects with hyperprolactinemia; use of drugs 56% of etiologies; Domperidone with and without PPI
Kindly state Among the drugs causing hyperprolactinemia: share of cases for each of the entries shown.
Write down the numeric answer in % and omit the unit.

What measured Among the drugs causing hyperprolactinemia: share of cases goes with Cc1nc2n(c(=O)c1CCN1CCC(c3noc4cc(F)ccc34)CC1)CCCC2 ?
7.14

Another molecule to look at: O=c1[nH]c2ccccc2n1CCCN1CCC(n2c(=O)[nH]c3cc(Cl)ccc32)CC1
53.57

// next record Cc1cc2c(s1)Nc1ccccc1N=C2N1CCN(C)CC1
3.57

Now give it for CN[C@H]1CC[C@@H](c2ccc(Cl)c(Cl)c2)c2ccccc21 too.
3.57
